Protocol notes: coupled detection enzyme interference, dose response, artefact control for MgcRacGAP inhibitor project, biochemical, coupled enzyme counter-screen (AID 624351);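 further: signal is the ADP detection kit reading of free GDP without any GAP enzyme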
Conditions used: ADP Hunter coupled enzyme counter-screen, fluorescence, no MgcRacGAP; series mostly up to 80 µM
The campaign covered roughly 2,400 compounds. About 1,400 (58%) were called active.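 How the source made its calls: active means inhibition of 30% or more at any tested dose; inconclusive means primary hits over the limit that were never retested; inactive means the rest.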 So high a share suggests a set chosen from earlier hits. The list shows a part of the results.
Choose one outcome from this list and give only that: active, inactive

Recorded call for COc1cc(/C=N/NS(=O)(=O)c2ccc(C)c([N+](=O)[O-])c2)ccc1O ? active

Called result for O=C(c1ccccc1)c1coc2ccc(O)c(Cl)c12 active

Write down the call the test reported for this molecule. Item: Clc1cccc(N/N=C/c2ccc(N3CCOCC3)s2)c1 active

What call does the record list for COc1cc(/C=N\NC(=O)CNC(=O)c2cccc([N+](=O)[O-])c2)ccc1O ? active

Look up the recorded call for O=C(/C(=C/c1cccnc1)n1ccnc1)c1ccc(Cl)cc1Cl in this test. inactive

Hello, I am checking results. What call was entered for COc1cc(/C=N/NC(=O)c2cccc([N+](=O)[O-])c2)ccc1O ? active

Hello, I am checking results. What call was entered for CC(=O)NC(Nc1c(C)n(C)n(-c2ccccc2)c1=O)C(Cl)(Cl)Cl (configuration not stated) ? inactive

Hi, do you know how Cc1c(NC(=S)N/N=C/c2ccc(O)cc2)c(=O)n(-c2ccccc2)n1C came out in this test? active

What was the test verdict on O=C(COc1ccccc1C(=O)N/N=C\c1ccc(O)c(O)c1)N/N=C/c1ccc(O)c(O)c1 ? active

Could you check what this test reported for Cc1c(N=C2C=C(Br)C(=O)C(Br)=C2)c(=O)n(-c2ccccc2)n1C ? active

What is the recorded call for this molecule in the test? Cc1[nH]c2ccccc2c1N=Nc1c(C)n(C)n(-c2ccccc2)c1=O active

For COc1cc(/C=N\NC(=O)c2ccc(Cn3nc([N+](=O)[O-])c(Cl)c3C)o2)ccc1O , what call appears in the results of this test? active

# outcome recorded in this test, key = O=c1nc2s/c(=C\c3ccc(-c4ccccc4[N+](=O)[O-])o3)c(=O)n2nc1-c1ccccc1 inactive

GET /call?item= CC1=C/C(=C(/c2cc(C)c(O)c(Br)c2)c2ccccc2S(=O)(=O)O)C=C(Br)C1=O returns the recorded outcome of this test. active

Assay result, entry O=C1CCCC2=C1Sc1ccc(Cl)cc1N2 — outcome? active

// outcome(item) with item = CCCSC1=N/C(=C\C=C\c2ccco2)C(=O)S1 inactive

Assay outcome for NC(=O)N/N=C/c1ccc(N2CCOCC2)s1 : what was it? active

I'd appreciate the recorded outcome for O=C(Sc1n[nH]c(=O)[nH]c1=O)c1ccccc1 from this test. inactive

Any idea what this test logged for CNC(=S)N/N=C/c1ccc(N2CCOCC2)s1 ? inactive

What did the test return for O=C1c2ccccc2C(=O)C1c1ccc(O)cc1 ? active

I'd appreciate the recorded outcome for CN1/C(=N\O)c2cccc3cccc1c23 from this test. active

// outcome(item) with item = CC(=O)Oc1ccc2c(=O)c(Oc3ccccc3)coc2c1OC(C)=O inactive

----------
Protocol notes: coupled detection enzyme interference, dose response, artefact control for MgcRacGAP inhibitor project, biochemical, coupled enzyme counter-screen (AID 624351);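 further: signal is the ADP detection kit reading of free GDP without any GAP enzyme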
Conditions used: ADP Hunter coupled enzyme counter-screen, fluorescence, no MgcRacGAP; series mostly up to 80 µM
Out of some 2,400 compounds screened, about 1,400 (58%) were called active.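 The calls were made as follows: active = inhibition of 30% or more at any tested dose; inconclusive = primary hits over the limit that were never retested; inactive = the rest.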 So high a share suggests a set chosen from earlier hits. This is one part of the list.
Assign a class; possible classes are TRUE for active, FALSE for inactive

Test call for this compound, please: N#CC1=C(S)N(c2ccc(F)cc2)C2(CCCCC2)NC1=O FALSE

Recorded test outcome, item CCOc1ccc(NCc2cccn2-c2nnc(N3CCC(C(=O)NCCCN4CCCCC4)CC3)s2)cc1 TRUE

Call for entry CC(=O)C1=C(O)C(=O)N(c2ccc(O)cc2)C1c1ccccc1[N+](=O)[O-] (stereo unspecified) : FALSE

Could you kindly confirm the outcome this assay logged for O=C(/C(=C/c1ccccc1)n1cncn1)c1ccc(Cl)cc1Cl ? FALSE

Tell me the recorded outcome of this test for CN1CCN(/N=C/c2nc(-c3ccc(Cl)cc3)n3ccccc23)CC1 . TRUE

Record lookup: outcome of this test for COc1cc(N2C(=O)C=CC2=O)ccc1N1C(=O)C=CC1=O ? FALSE

Test call for this compound, please: COc1cc(C=c2c3ccccc3n3c2cc(-c2ccccc2)[n+]3C)cc(OC)c1OC FALSE

Any idea what this test logged for CC1(C)Nc2cccc3cccc(c23)N1 ? TRUE

How did this test come out for CCCS(=O)(=O)N1CCN(C2Cc3ccccc3C2)CC1 ? FALSE

Test call for this compound, please: Cc1ccc(C2CC(=O)N3CN(c4ccc(Br)cc4)CSC3=C2C#N)o1 (stereo unspecified) FALSE

Could you check what this test reported for CCCS(=O)(=O)N1CCN(CC2CC3C=CC2C3)CC1 (stereo unspecified) ? FALSE
